The following compounds are shown together with reported melting point values.

Observe how each entry below is paired with its result.
# Compound, Property measured, Result value
records = [
    ("CC1(C)NCCc2c1oc1cc(I)ccc21", "melting point", "97 to 98 °C"),
    ("CCCCCCCCCCCCCCCOCCSCCCO", "melting point", "44 to 47 °C"),
    ("CCCCCCCCCCCCc1nnn(CC(=O)Nc2ccc(F)cc2F)n1", "melting point", "103 to 106 °C"),
]

Query: Quick one: melting point for Cc1ccc2c(c1)C(C(=O)Nc1c(C)cccc1C)c1ccccc1CO2 (stereo not drawn) ?
Response: 162 to 163 °C

Query: So what does the record say about melting point for COC(=O)C(=O)c1ccc(OCCOc2ccc([N+](=O)[O-])cc2)cc1 ?
Response: 122 to 123 °C

Query: State the recorded melting point for this entry: COc1c(C)cc(N2CCN(S(=O)(=O)c3ccc(C)cc3)CC2)cc1C
Response: 174 °C

Query: Which melting point value is on record for CC(=O)N[C@@H](CSC(c1ccccc1)(c1ccccc1)c1ccccc1)C(=O)N1CCSC1 ?
Response: 197 to 198 °C

Query: Item under review: CN(C)C=C(C#N)C=O . Reported melting point?
Response: 140 to 141 °C

---

Property measured: melting point

# Record smiles, melting point
rows = [
    ("CN1CCN(NS(=O)(=O)c2cc([N+](=O)[O-])c(Cl)s2)CC1", "91 °C"),
    ("O=C(O)COc1ccc(C(=O)c2cccc3ccccc23)c(Cl)c1Cl", "173 to 175 °C"),
]

Shift focus to the following entry.
Query: Could you share which melting point value was measured for CCn1cc(CS(C)(=O)=O)c(=O)c2ccccc21 ?
Response: 162 to 164 °C

---

Property measured: melting point

# Compound, melting point
records = [
    ("CN1CCN(c2cccc3c2C[C@H](NC(=O)C2CCCCC2)CC3)CC1", "183 to 184 °C"),
    ("CCCN(CCC)C1Cc2cc3c(cc2C1)C(=O)N(Cc1ccccn1)C3=O", "130 to 135 °C"),
    ("COc1ccc(C(=O)Cc2ccc(Br)cc2)cc1", "142 °C"),
    ("COc1cc2c(cc1OC)CCCC(C(=O)O)=C2", "158 to 159 °C"),
]

Query: Can you look up the measured melting point of CC1Cc2ccc(Br)cc2C(c2ccc(N)cc2)=NN1C(=O)C(F)(F)F (stereo not drawn) for me?
Response: 93 to 96 °C

Query: What value of melting point has been recorded for this entry: CC(C)C(c1ccc2ncc(=O)[nH]c2c1)n1ccnc1 (stereo not drawn)
Response: 246 °C

Query: Which melting point is reported for this compound? COc1cc(C(=O)O)cc2c1C(=O)c1c(OC)ccc(OC)c1C2=O
Response: 260 to 262 °C

Query: Consider the compound CCOC(=O)Cn1c(CC)nc2nc3cc(Cl)ccc3nc21 and give its measured melting point.
Response: 174 to 175 °C

Query: Fill in: melting point of O=c1c(CCCCc2ccncc2)cc2cccnc2n1-c1cccc([N+](=O)[O-])c1 is ___
Response: 169 to 170 °C

Query: Form field: reported melting point of COc1ccc2nc(C)sc2c1N
Response: 117 to 119 °C

Query: Which value of melting point has been reported for CC(C)OC(=O)c1ccc(OCc2ccccc2)cc1 in the records?
Response: 62 to 63 °C

---

Property measured: melting point

Example entries and their recorded answers appear below.
# Molecule, melting point
records = [
    ("COc1ccc2c(C)c3n(c2c1)CCCC3NC=O (configuration not stated)", "181 to 182 °C"),
    ("CN(C)n1cc(-c2ccccc2)c(=O)c(-c2ccccc2)c1", "143 °C"),
    ("O=S(=O)(Oc1ccc2ncc3c(c2c1)CCCC3)C(F)(F)F", "80 to 81 °C"),
    ("CC(C)C1(C)CC(O)C2(C)CCC3c4ccc(O)cc4CCC3C12 (configuration not stated)", "201 to 205 °C"),
    ("CCn1ncnc1COc1nc2c(cc1C(C)(C)C)nnn2-c1ccccc1", "161 to 163 °C"),
    ("NC(=O)N(O)Cc1cccc(OCc2coc(-c3ccc(F)cc3)n2)c1", "89 to 91 °C"),
]

Query: Quick check: melting point of O=C(Nc1n[nH]c(=S)s1)NC(Cc1ccccc1)C(=O)NCc1ccncc1 (configuration not stated) ?
Response: 208 to 211 °C

---

Recorded melting point for the following molecules

These solved cases illustrate the format of a correct answer.
# Molecule, melting point
measured = [
    ("Clc1ccc(Cn2cnc3c(Cl)ncnc32)cc1Cl", "130 to 133 °C"),
    ("Cc1cc(C)cc(P(c2cc(C)cc(C)c2)c2cccc3c2-c2c(cccc2P(c2cc(C)cc(C)c2)c2cc(C)cc(C)c2)OCCCO3)c1", "232 to 234 °C"),
    ("Cc1cc(-c2ccc3c(C(N)=O)nn(-c4ccc(S(N)(=O)=O)cc4)c3c2)ccc1F", "300 to 302 °C"),
]

Query: Requested read-out: melting point. Entry: OC(Cn1cncn1)(c1ccc(F)cc1)C(F)(F)c1ccc(F)cc1 (configuration not stated)
Response: 128 to 130 °C

Query: Consider the molecule O=C(NCCCc1ccncc1)N(CCC12CC3CC(CC(C3)C1)C2)CC1CC1 and give its measured melting point.
Response: 123 to 125 °C

Query: Field request: melting point | item: O=C(O)CCCCCCCC(=O)CC(O)C(=O)C=Cc1ccccc1 (configuration not stated)
Response: 81.5 to 83 °C

Query: Request the reported melting point associated with N[C@@H](Cc1ccc(C(F)(F)F)cc1)[C@H](O)c1ccc(F)cc1F (racemic)
Response: 99 to 100 °C

Query: Need melting point of COC(=O)CCc1ccc(N2CCN(C34CCC(C#N)(CC3)CC4)C2=O)cc1 , thanks.
Response: 195 to 197 °C

Query: Given the molecule Cc1ccc(NC(=O)c2ccc(CN3CC[N+](C)([O-])CC3)cc2)cc1Nc1nccc(-c2cccnc2)n1 , what is its reported melting point?
Response: 154 to 158 °C

Query: Which melting point reading was recorded for the molecule Cc1cnc(C(=O)O)c(-c2ccc(Cl)c(C(=O)NCC34CC5CC(CC(C5)C3)C4)c2)c1 ?
Response: 125 to 130 °C

Query: # query: melting point of entry COc1cccc(CNC(=O)c2nc3scc(CNC(=O)c4ccc(C(=O)O)cc4)c3c(=O)[nH]2)c1
Response: 285 to 286 °C

Query: Which melting point reading was recorded for the molecule c1cc2cc(-c3cn([C@H]4CN5CCC4CC5)nn3)ccc2o1 ?
Response: 178 °C

Query: So what does the record say about melting point for CC(C)(C)OC(=O)Nc1ccc(C#Cc2ccc(F)cc2)cc1[N+](=O)[O-] ?
Response: 157 to 158 °C

Query: Look up melting point: O=C1N(Cc2cccc(-c3noc(C(F)(F)F)n3)c2)c2ccccc2C12COc1cc3c(cc12)CCO3 (configuration not stated)
Response: 182 to 188 °C

Query: Which melting point value belongs to CS(=O)(=O)Nc1ccc(N2CCN(c3ccncc3)CC2)cc1 ?
Response: 230 to 232 °C

Query: Given OCc1ccnc(OCc2cn3c(Cl)cccc3n2)c1 , state its recorded melting point.
Response: 143 to 144 °C

Query: Consider the molecule shown here: O=C1Cc2cc(Cl)cc(Oc3ccccc3F)c2N1 What is its recorded melting point?
Response: 204 to 207 °C

Query: Would you mind telling me what melting point value was observed for NS(=O)(=O)c1cccc(-c2noc(-c3cnc4ccc(-c5ccc(C(F)(F)F)cc5)cn34)n2)c1 ?
Response: 288 °C

Query: Sample CC(C)/[N+]([O-])=C/c1ccc(O)cc1 — what was its melting point?
Response: 217 to 218 °C

Query: Item O=[N+]([O-])c1ccc(OCC2CCN(c3ccncc3)CC2)cc1 has what recorded melting point?
Response: 119 to 120 °C

Query: What measured melting point goes with Nc1ccc(CCO)c(N)c1 ?
Response: 67 to 72 °C

Query: Item under review: COc1ccc2nc(-c3ccc([N+](=O)[O-])cc3)sc2c1 . Reported melting point?
Response: 216 to 217 °C

---

Property measured: melting point

Check out these entries, answers already filled in.
# Record smiles, Property measured, Result value
measured = [
    ("CC(C)(NCCCn1ccnc1)c1ccc(-c2ccc(O)cc2)cc1", "melting point", "178 to 180 °C"),
    ("N#Cc1c(C(F)(F)F)ccc(Cl)c1Cl", "melting point", "53 to 54 °C"),
    ("CCOCc1nc2c(N)nc(C)c(C)c2n1CCOCC#Cc1cncnc1", "melting point", "122 to 124 °C"),
    ("CCCCN(CCCC)CCCNc1ccccc1[N+](=O)[O-]", "melting point", "79 °C"),
    ("Cc1cc(C(N)=O)c(NC(=O)CCC(F)(F)F)s1", "melting point", "151 to 153 °C"),
]

Query: Please give the measured melting point for this compound: O=C1c2ccccc2C(=O)c2sc(-c3ccc(Cl)o3)nc21
Response: 258 °C

Query: What value of melting point has been recorded for this entry: O=Cc1cnc(Nc2n[nH]c3ccc(-c4ncccc4Cl)cc23)s1
Response: 223 to 224 °C

Query: Param item = C=C(CN(C)C)c1ccc(NC(=O)NC)cc1 ; retrieve measured melting point.
Response: 123 to 124 °C

Value source: a melting point compilation (Tetko et al.; mined from patent text by program, amines drawn as free bases though some values may be those of a salt)
